Recorded values, source paper PMC6628017.

- target desc: UniProt P59543
- Sequence (P59543 1-309): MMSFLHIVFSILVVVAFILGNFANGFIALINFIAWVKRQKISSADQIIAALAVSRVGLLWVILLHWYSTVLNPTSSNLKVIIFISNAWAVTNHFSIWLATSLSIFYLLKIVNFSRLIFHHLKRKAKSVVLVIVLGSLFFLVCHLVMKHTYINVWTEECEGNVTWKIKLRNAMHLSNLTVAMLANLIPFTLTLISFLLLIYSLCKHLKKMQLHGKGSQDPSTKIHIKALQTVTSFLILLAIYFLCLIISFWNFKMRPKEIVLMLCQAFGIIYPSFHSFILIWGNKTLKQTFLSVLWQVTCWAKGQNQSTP
- test method notes: Calcium mobilization assay, HEK293T cells stably expressing T2R20
- applied conditions: 3–200 μM; ± standard deviation; read-out: EC50, activation of T2R20 calcium mobilization
pEC50: −log10 of the molar value.
measured quantity: pEC50

N[C@@H](CCCCNCC(=O)O)C(=O)O : 4.19
NC(CCCCn1cc[n+](CCCCC(N)C(=O)O)c1)C(=O)O (stereo not drawn) : 4.10
O=C(O)c1cc(=O)c2c(OCC(O)COc3cccc4oc(C(=O)O)cc(=O)c34)cccc2o1 [cromolyn, reference compound] : 4.29
